protocol_summary: Rat pharmacokinetic test
Assay type: in vivo, SD rats
condition_parameters: both sexes, SD, rat, plasma, po, 30 mg/kg, SD rats, multiple gavage, 30 mg/kg once per day for 7 days; read-out: MRT0-∞
quantity_name: MRT inf (h)
Numbers only, in h.

INPUT: Note down MRT inf recorded for O=C(O)C[S+]([O-])c1cc(NS(=O)(=O)c2ccc(Br)cc2)c2ccccc2c1O (stereo not shown) [Embodiment 4]
OUTPUT: 3.86

* * *

protocol_summary: Solubility in FaSSIF, FeSSIF, water and SGF
Format: physicochemical
condition_parameters: FeSSIF buffer, thermodynamic from solid; FeSSIF, 24 h
Experimental: Aliquots of the samples are placed in the media FaSSIF buffer, FeSSIF buffer, water and SGF and tested for solubility at 0.5, 2 and 24 hours, respectively.
quantity_name: solubility at 24 h (µg/mL)
Give bare numbers, in µg/mL.

INPUT: # return recorded solubility at 24 h for entry O=C(O)C[S+]([O-])c1cc(NS(=O)(=O)c2ccc(Br)cc2)c2ccccc2c1O (stereo not shown)
OUTPUT: 1290

* * *

protocol_summary: Solubility in FaSSIF, FeSSIF, water and SGF
Assay type: physicochemical
condition_parameters: FaSSIF buffer, thermodynamic from solid; FaSSIF, 24 h
quantity_name: solubility at 24 h (µg/mL)
One number for each entry, in µg/mL.

INPUT: Query solubility at 24 h for O=C(O)C[S+]([O-])c1cc(NS(=O)(=O)c2ccc(Br)cc2)c2ccccc2c1O (stereo not shown)
OUTPUT: 2340

* * *

protocol_summary: Solubility in FaSSIF, FeSSIF, water and SGF
Format: physicochemical
condition_parameters: FaSSIF buffer, thermodynamic from solid; FaSSIF, 0.5 h
quantity_name: solubility at 0.5 h (µg/mL)
One number for each entry, in µg/mL.

INPUT: Return reported solubility at 0.5 h. Input molecule: O=C(O)C[S+]([O-])c1cc(NS(=O)(=O)c2ccc(Br)cc2)c2ccccc2c1O (stereo not shown) [Embodiment 4]
OUTPUT: 3300

* * *

protocol_summary: Rat pharmacokinetic test
Assay type: in vivo, SD rats
condition_parameters: both sexes, SD, rat, plasma, po, 30 mg/kg, SD rats, single gavage, 30 mg/kg; read-out: MRT0-∞
quantity_name: MRT inf
Write the numeric value and append its unit.

INPUT: Please report the measured MRT inf for O=C(O)C[S+]([O-])c1cc(NS(=O)(=O)c2ccc(Br)cc2)c2ccccc2c1O (stereo not shown)
OUTPUT: 5.11 h

* * *

protocol_summary: Rat pharmacokinetic test
Type: in vivo, SD rats
condition_parameters: both sexes, Sprague-Dawley (SD), rat, plasma, iv, 10 mg/kg, SD rats, single intravenous injection, 10 mg/kg; read-out: MRT0-∞
quantity_name: MRT inf (h)
Answers are plain numbers, in h.

INPUT: Query MRT inf for O=C(O)C[S+]([O-])c1cc(NS(=O)(=O)c2ccc(Br)cc2)c2ccccc2c1O (stereo not shown)
OUTPUT: 2.06

* * *

protocol_summary: Rat pharmacokinetic test
Type: in vivo, SD rats
condition_parameters: both sexes, rat, plasma; SD rats, single intravenous injection, 10 mg/kg; read-out: Vss
quantity_name: Vd (L/kg)
Give bare numbers, in L/kg.

INPUT: Return value of Vd for input O=C(O)C[S+]([O-])c1cc(NS(=O)(=O)c2ccc(Br)cc2)c2ccccc2c1O (stereo not shown) , no commentary.
OUTPUT: 0.184

* * *

protocol_summary: Rat pharmacokinetic test
Type: in vivo, SD rats
condition_parameters: both sexes, rat, plasma, po; SD rats, single gavage, 10 mg/kg
quantity_name: Cmax (ng/mL)
Numbers only, in ng/mL.

INPUT: Return reported Cmax. Input molecule: O=C(O)C[S+]([O-])c1cc(NS(=O)(=O)c2ccc(Br)cc2)c2ccccc2c1O (stereo not shown) [Embodiment 4]
OUTPUT: 3130

* * *

protocol_summary: Rat pharmacokinetic test
Format: in vivo, SD rats
condition_parameters: both sexes, SD, rat, plasma, po, 90 mg/kg, SD rats, single gavage, 90 mg/kg; read-out: MRT0-∞
quantity_name: MRT inf

INPUT: Quickly give me recorded MRT inf for O=C(O)C[S+]([O-])c1cc(NS(=O)(=O)c2ccc(Br)cc2)c2ccccc2c1O (stereo not shown)
OUTPUT: 3.94 h

* * *

test_system: Mcl-1 protein (Homo sapiens, UniProt Q07820)
Sequence (Q07820 whole entry, species assumed): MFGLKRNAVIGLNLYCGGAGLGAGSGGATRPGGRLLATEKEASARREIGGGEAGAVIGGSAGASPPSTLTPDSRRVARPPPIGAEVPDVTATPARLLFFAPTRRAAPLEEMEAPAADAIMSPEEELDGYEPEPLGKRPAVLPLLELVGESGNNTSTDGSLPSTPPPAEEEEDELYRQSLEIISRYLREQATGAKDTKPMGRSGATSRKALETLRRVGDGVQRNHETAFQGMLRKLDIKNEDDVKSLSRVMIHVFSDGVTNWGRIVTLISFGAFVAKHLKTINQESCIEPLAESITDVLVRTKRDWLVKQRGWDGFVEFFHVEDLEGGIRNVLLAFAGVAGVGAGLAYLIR
protocol_summary: Affinity test of recombinant Mcl-1 protein (SPR, Biacore)
condition_parameters: CM5 chip coupled to the protein, read-out: Affinity constant KD
quantity_name: Kd

INPUT: Retrieve Kd measured for O=C(O)C[S+]([O-])c1cc(NS(=O)(=O)c2ccc(Br)cc2)c2ccccc2c1O (stereo not shown) and print it.
OUTPUT: 1120 nM

* * *

protocol_summary: Rat pharmacokinetic test
Assay type: in vivo, SD rats
condition_parameters: both sexes, rat, plasma, oral; SD rats, single gavage 10 mg/kg versus intravenous 10 mg/kg; read-out: F (absolute bioavailability)
Method: The plasma kinetic characteristics of the prototype drugs in healthy SD rats are analyzed after three doses of single gavage administration, a single dose of consecutive multiple gavage administration, and a single dose of intravenous injection administration of the sodium salt D crystal form of TJ01-013. […]
quantity_name: bioavailability (%)
Answers are plain numbers, in %.

INPUT: Given O=C(O)C[S+]([O-])c1cc(NS(=O)(=O)c2ccc(Br)cc2)c2ccccc2c1O (stereo not shown) [Embodiment 4] , respond with its bioavailability.
OUTPUT: 9.55

* * *

protocol_summary: Rat pharmacokinetic test
Type: in vivo, SD rats
condition_parameters: both sexes, SD, rat, plasma, po, 30 mg/kg, SD rats, single gavage, 30 mg/kg; read-out: AUC0-24 h
Experimental: The plasma kinetic characteristics of the prototype drugs in healthy SD rats are analyzed after three doses of single gavage administration, a single dose of consecutive multiple gavage administration, and a single dose of intravenous injection administration of the sodium salt D crystal form of TJ01-013. […]
quantity_name: AUC(0-t) (ng·h/mL)
Answers are plain numbers, in ng·h/mL.

INPUT: Write down AUC(0-t) measured for item O=C(O)C[S+]([O-])c1cc(NS(=O)(=O)c2ccc(Br)cc2)c2ccccc2c1O (stereo not shown) [Embodiment 4]
OUTPUT: 22100

* * *

protocol_summary: Solubility in FaSSIF, FeSSIF, water and SGF
Format: physicochemical
condition_parameters: FeSSIF buffer, thermodynamic from solid; FeSSIF, 0.5 h
quantity_name: solubility at 0.5 h (µg/mL)
Give bare numbers, in µg/mL.

INPUT: Please indicate solubility at 0.5 h recorded for O=C(O)C[S+]([O-])c1cc(NS(=O)(=O)c2ccc(Br)cc2)c2ccccc2c1O (stereo not shown)
OUTPUT: 1320

* * *

protocol_summary: Rat pharmacokinetic test
Assay type: in vivo, SD rats
condition_parameters: both sexes, SD, rat, plasma, po, 30 mg/kg, SD rats, multiple gavage, 30 mg/kg once per day for 7 days; read-out: AUC0-24 h
Method: The plasma kinetic characteristics of the prototype drugs in healthy SD rats are analyzed after three doses of single gavage administration, a single dose of consecutive multiple gavage administration, and a single dose of intravenous injection administration of the sodium salt D crystal form of TJ01-013. […]
quantity_name: AUC(0-t) (ng·h/mL)
Numbers only, in ng·h/mL.

INPUT: Tell me its AUC(0-t) given O=C(O)C[S+]([O-])c1cc(NS(=O)(=O)c2ccc(Br)cc2)c2ccccc2c1O (stereo not shown) as the entry.
OUTPUT: 26200
